- Assayed system: T1, human IL13Rα2 on cells (human, UniProt Q14627 27-380)
- T1 construct: whole, on cells; also called hIL13Rα2
- T1 sequence (looked up): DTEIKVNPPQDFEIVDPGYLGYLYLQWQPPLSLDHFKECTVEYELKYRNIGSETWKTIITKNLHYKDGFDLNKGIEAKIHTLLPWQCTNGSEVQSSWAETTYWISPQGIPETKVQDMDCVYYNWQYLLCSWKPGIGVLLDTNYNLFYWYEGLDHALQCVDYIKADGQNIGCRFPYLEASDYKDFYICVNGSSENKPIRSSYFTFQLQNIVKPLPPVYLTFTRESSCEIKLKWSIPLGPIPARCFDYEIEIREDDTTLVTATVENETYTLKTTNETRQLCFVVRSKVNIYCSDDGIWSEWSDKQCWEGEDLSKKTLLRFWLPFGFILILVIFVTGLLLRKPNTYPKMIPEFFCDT
- Method: flow cytometry; cell line not stated
Measured metric: Flow Cytometry MFI (MFI)
Report as a plain number; the unit MFI is understood.

Note to self: Flow Cytometry MFI recorded for anti-IL13Rα2 Clone 1 humanized variant 1-h9 (VHH) VHH: EVQLVESGGGLVQPGGSLRLSCAASGFTSDYYIMGWFRQAPGKGLEWVSCISSKYANTYYADSVKGRFTISRDNAKNTLYLQMNSLRPEDTAVYYCAADTRRYTCPDIATMHRNFDSWGQGTLVTVSS was 842

Sample Humanized Llama Single domain anti-IL13Rα2 Clone 1-h8 (H1-LSD1) (VHH, Captured on a Ni-NTA sensor, so a His tag is implied; the tag is not described) VHH: EVQLVESGGGLVQPGGSLRLSCAASGFTSDYYIMGWFRQAPGKGLEGVSCISSKYANTYYADSVKGRFTISRDNAKNTLYLQMNSLRPEDTAVYYCAADTRRYTCPDIATMHRNFDSWGQGTLVTVSS ; Flow Cytometry MFI observed: 1240

Entry under test: Llama single domain anti-IL13Rα2 Clone 1 (LSD1) (VHH, Captured on a Ni-NTA sensor in the Octet assay, so a His tag is implied; the tag is not described for this construct; also called parental; clone 1 parental) VHH: DVQLVESGGGLVQPGGSLRLSCAASGFTSDYYIIGWFRQAPGKEREGVSCISSKYANTNYADSVKGRFTQSRGAAKNTVYLQMNALKPEDTAVYYCAADTRRYTCPDIATMHRNFDSWGQGTQVTVSS . Its Flow Cytometry MFI was 2270

// field: Flow Cytometry MFI; key: Humanized Llama single domain anti-IL13Rα2 Clone 1-h10 (H2-LSD1) (VHH, Captured on a Ni-NTA sensor, so a His tag is implied; the tag is not described) VHH: EVQLVESGGGLVQPGGSLRLSCAASGFTSDYYIMGWVRQAPGKGLEWVSCISSKYANTYYADSVKGRFTISRDNAKNTLYLQMNSLRPEDTAVYYCAADTRRYTCPDIATMHRNFDSWGQGTLVTVSS ; value = 639
